Each recorded value in this set is attributed to patent US9615577B2.

System: Alopecurus myosuroides (ALOMY)
Assay: Biological Example 2 comparative herbicidal data, post-emergence glasshouse screen
Format: in vivo
Details: 312 h, 62.5 g/ha application rate, read-out: Post-emergence herbicidal activities (percentage phytotoxicity) ALOMY
Protocol: Seeds of a variety of test species were sown in standard soil in pots. […] After 13 days for pre and post-emergence, the test was evaluated visually for percentage phytotoxicity to the plant (where 100=total damage to plant; 0=no damage to plant). […]
ASSAY_READOUT: pest or weed control at 62.5 g/ha (%)
Expressed in %, but write only the number.

State its pest or weed control at 62.5 g/ha: C#Cc1cc(C)c(C2C(=O)C3CCC(C3)C2=O)c(C)c1 (stereo not drawn) [Compound X-2, reference compound]
10

Supply pest or weed control at 62.5 g/ha value. Item: C#Cc1cc(C)c(C2C(=O)CC(CC3CCOCC3)CC2=O)c(C)c1 (stereo not drawn) [Compound X-3, reference compound]
60

Annotate the compound CC#Cc1ccc(C2C(=O)C(C)(C)OC(C)(C)C2=O)c(C)c1 with its measured pest or weed control at 62.5 g/ha.
80

* * *

tested on: SORVU (Sorghum bicolor (L.) Moench ssp. Bicolor, or Sorghum vulgare Pers.); test: Test 1B glasshouse assay for herbicidal activity, post-emergence; type: in vivo; details: 360 h, 30 g/ha application rate
ASSAY_READOUT: pest or weed control at 30 g/ha (%)
Express your answer in %, writing the number without its unit.

// fetch pest or weed control at 30 g/ha given entry CC#Cc1cc(Cl)c(C2C(=O)C3CCC(C3)C2=O)c(OC)c1 (stereo not shown)
80

Determine from records and report pest or weed control at 30 g/ha for CC#Cc1cc(C)c(C2C(=O)C3CCC(C3)C2=O)c(OC)c1 (stereo not shown)
100

Read the entry CC#Cc1cc(C)c(C2=C(OC(=O)OC)CC(c3ccccn3)CC2=O)c(C)c1 (stereo not shown) and write its reported pest or weed control at 30 g/ha.
80

Dear colleague, please send me the reported pest or weed control at 30 g/ha for CC#Cc1cc(Cl)c(C2C(=O)C3CCC(C3)C2=O)c(OCC)c1 (stereo not shown) when you can.
80

* * *

tested on: Amaranthus retroflexus (AMARE); test: Test 1A glasshouse assay for herbicidal activity, post-emergence; assay type: in vivo; details: 312 h, 30 g/ha, evaluated after 13 days, read-out: percentage phytotoxicity AMARE
Exercise: state measured pest or weed control at 30 g/ha for each of the compounds provided.
Write the answer as a number in %, unit excluded.

For the compound CC#Cc1cc(Cl)c(C2=C(OC(=O)c3ccc(Cl)cc3)CC(C3CCOCC3)CC2=O)c(OC)c1 (centres unmarked) , give its measured pest or weed control at 30 g/ha value.
80

Please give measured pest or weed control at 30 g/ha of the following entry: CC#Cc1cc(C)c(C2C(=O)CC(c3ccccn3)CC2=O)c(C)c1 (centres unmarked)
30

In one line, give reported pest or weed control at 30 g/ha of the entry CC#Cc1cc(C)c(C2C(=O)CC(CC(C)SC)CC2=O)c(C)c1 (centres unmarked) .
0

Determine its reported pest or weed control at 30 g/ha: CC#Cc1cc(Cl)c(C2C(=O)CC3(CCOCC3)CC2=O)c(OC)c1
80

Quickly give me recorded pest or weed control at 30 g/ha for CC#Cc1cc(C)c(C2C(=O)C3CCC(C3)C2=O)c(C)c1 (centres unmarked)
10

* * *

tested on: Amaranthus retroflexus (AMARE); assay: Test 1A glasshouse assay for herbicidal activity, post-emergence; format: in vivo; conditions: 312 h, 250 g/ha, evaluated after 13 days, read-out: percentage phytotoxicity AMARE
Provide the recorded pest or weed control at 250 g/ha for the entries that follow.
Your answer should be a plain number; it is taken to be in %.

Please respond with reported pest or weed control at 250 g/ha (system Amaranthus retroflexus (AMARE)) for CC#Cc1cc(Cl)c(C2C(=O)C3CCC(C)(C2=O)C3(C)C)c(OC)c1 (stereo not drawn) .
0

Write pest or weed control at 250 g/ha of CC#Cc1cc(C)c(C2=C(OC(=O)OC)CC(c3ccccn3)CC2=O)c(C)c1 (stereo not drawn) ; system used: Amaranthus retroflexus (AMARE)
20

GET pest or weed control at 250 g/ha | system: Amaranthus retroflexus (AMARE) | item: CCC#Cc1cc(Cl)c(C2C(=O)C3CCC(C3)C2=O)c(OC)c1 (stereo not drawn)
30

Enter pest or weed control at 250 g/ha (test system Amaranthus retroflexus (AMARE)) for CC#Cc1cc(Cl)c(C2=C(OC(=O)c3ccc(Cl)cc3)CC(C3CCOCC3)CC2=O)c(OC)c1 (stereo not drawn)
80

Under Amaranthus retroflexus (AMARE), report pest or weed control at 250 g/ha for C#Cc1cc(Cl)c(C2C(=O)CCCC2=O)c(OC)c1
0

Enter measured pest or weed control at 250 g/ha, system Amaranthus retroflexus (AMARE), for the molecule shown: CC#Cc1cc(Cl)c(C2C(=O)CC3(CCOCC3)CC2=O)c(OC)c1
80

Find the measured pest or weed control at 250 g/ha of CC#Cc1cc(C)c(C2C(=O)CC(c3ccccn3)CC2=O)c(C)c1 (stereo not drawn) with Amaranthus retroflexus (AMARE) as test system.
60

Quote pest or weed control at 250 g/ha with test system Amaranthus retroflexus (AMARE) for C#Cc1cc(Cl)c(C2C(=O)C3CCC(C3)C2=O)c(OC)c1 (stereo not drawn)
0

Under Amaranthus retroflexus (AMARE), report pest or weed control at 250 g/ha for CC#Cc1cc(Cl)c(C2C(=O)C3CCC(C3)C2=O)c(CC)c1 (stereo not drawn)
0

Name the recorded pest or weed control at 250 g/ha of CC#Cc1cc(C)c(C2C(=O)CC(CC(C)SC)CC2=O)c(C)c1 (stereo not drawn) , assay system Amaranthus retroflexus (AMARE).
60

Please respond with reported pest or weed control at 250 g/ha (system Amaranthus retroflexus (AMARE)) for CC#Cc1cc(Cl)c(C2=C(OC(=O)C(C)(C)C)C3CCC(C3)C2=O)c(OC)c1 (stereo not drawn) .
0

Find pest or weed control at 250 g/ha for CC#Cc1cc(C)c(C2C(=O)C3CCC(C3)C2=O)c(C)c1 (stereo not drawn) on Amaranthus retroflexus (AMARE) and write it down.
0

Retrieve pest or weed control at 250 g/ha on Amaranthus retroflexus (AMARE); query Cc1cc(C#CCl)cc(C)c1C1C(=O)C2CCC(C2)C1=O (stereo not drawn)
0

# return pest or weed control at 250 g/ha of CC#Cc1cc(Cl)c(C2C(=O)C3CCC(C3)C2=O)c(OCC)c1 (stereo not drawn) (system: Amaranthus retroflexus (AMARE))
70

Give measured pest or weed control at 250 g/ha for C#Cc1cc(Cl)c(C2C(=O)CC3(CCOCC3)CC2=O)c(OC)c1 (Amaranthus retroflexus (AMARE)).
0

// output pest or weed control at 250 g/ha; input CC#Cc1cc(C)c(C2=C(OC(=O)C(C)(C)C)C3CCC(C3)C2=O)c(C)c1 (stereo not drawn) ; system Amaranthus retroflexus (AMARE)
10

Please respond with reported pest or weed control at 250 g/ha (system Amaranthus retroflexus (AMARE)) for CC#Cc1cc(C)c(C2C(=O)CC(CC3CCOCC3)CC2=O)c(C)c1 (stereo not drawn) .
30

* * *

system: Alopecurus myosuroides (ALOMY); assay: Test 1A glasshouse assay for herbicidal activity, post-emergence; assay type: in vivo; conditions: 312 h, 250 g/ha, evaluated after 13 days, read-out: percentage phytotoxicity ALOMY
ASSAY_READOUT: pest or weed control at 250 g/ha

Return reported pest or weed control at 250 g/ha. Input compound: CC#Cc1cc(C)c(C2=C(OC(=O)C(C)(C)C)C3CCC(C3)C2=O)c(C)c1 (stereo not drawn)
90%

Give a short answer stating reported pest or weed control at 250 g/ha for CC#Cc1cc(Cl)c(C2C(=O)CC3(CCOCC3)CC2=O)c(OC)c1 .
100%

Answer with the recorded pest or weed control at 250 g/ha of C#Cc1cc(Cl)c(C2C(=O)CC3(CCOCC3)CC2=O)c(OC)c1 only.
100%

Please give measured pest or weed control at 250 g/ha of the following entry: C#Cc1cc(Cl)c(C2C(=O)CCCC2=O)c(OC)c1
70%

Fill in reported pest or weed control at 250 g/ha for this entry: CC#Cc1cc(C)c(C2C(=O)C3CCC(C3)C2=O)c(CCC)c1 (stereo not drawn)
90%

Tell me its pest or weed control at 250 g/ha given CC#Cc1cc(C)c(C2C(=O)CC(CC(C)SC)CC2=O)c(C)c1 (stereo not drawn) as the entry.
100%

Read the entry CC#Cc1ccc(C2C(=O)C(C)(C)OC(C)(C)C2=O)c(C)c1 and write its reported pest or weed control at 250 g/ha.
90%

# return recorded pest or weed control at 250 g/ha for input CC#Cc1cc(Cl)c(C2C(=O)CCCC2=O)c(OC)c1
90%

Specify reported pest or weed control at 250 g/ha for the compound shown: Cc1cc(C#CCl)cc(C)c1C1C(=O)C2CCC(C2)C1=O (stereo not drawn)
70%

Assign pest or weed control at 250 g/ha to the following record: CC#Cc1cc(C)c(C2=C(OC(=O)OC)CC(c3ccccn3)CC2=O)c(C)c1 (stereo not drawn)
100%

Quickly give me recorded pest or weed control at 250 g/ha for CC#Cc1cc(Cl)c(C2C(=O)C3CCC(C)(C2=O)C3(C)C)c(OC)c1 (stereo not drawn)
90%

Query pest or weed control at 250 g/ha for CC#Cc1cc(Cl)c(C2=C(OC(=O)c3ccc(Cl)cc3)CC(C3CCOCC3)CC2=O)c(OC)c1 (stereo not drawn)
90%

Give the value of pest or weed control at 250 g/ha reported for the following: Cc1cc(C#CCl)cc(C)c1C1C(=O)CC(CC2CCOCC2)CC1=O (stereo not drawn)
80%

Return the recorded pest or weed control at 250 g/ha value; entry: CC#Cc1cc(C)c(C2C(=O)C3CCC(C3)C2=O)c(C)c1 (stereo not drawn)
100%

Given CC#Cc1cc(Cl)c(C2C(=O)C3CCC(C3)C2=O)c(OC)c1 (stereo not drawn) , respond with its pest or weed control at 250 g/ha.
90 to 100%

Could you please provide reported pest or weed control at 250 g/ha for CC#Cc1cc(Cl)c(C2C(=O)C3CCC(C3)C2=O)c(OCC(F)(F)F)c1 (stereo not drawn) ? Thanks!
70%

Indicate its recorded pest or weed control at 250 g/ha; the compound in question is CC#Cc1cc(Cl)c(C2C(=O)CC(CCSC)CC2=O)c(OC)c1 (stereo not drawn)
90%

Note pest or weed control at 250 g/ha for the compound shown: CCC#Cc1cc(Cl)c(C2C(=O)C3CCC(C3)C2=O)c(OC)c1 (stereo not drawn)
100%
